The origin of these recorded values is patent EP4759807A1.

# tested-target: IRAK4 (Homo sapiens, UniProt Q9NWZ3)
# Sequence (Q9NWZ3 whole entry, species assumed): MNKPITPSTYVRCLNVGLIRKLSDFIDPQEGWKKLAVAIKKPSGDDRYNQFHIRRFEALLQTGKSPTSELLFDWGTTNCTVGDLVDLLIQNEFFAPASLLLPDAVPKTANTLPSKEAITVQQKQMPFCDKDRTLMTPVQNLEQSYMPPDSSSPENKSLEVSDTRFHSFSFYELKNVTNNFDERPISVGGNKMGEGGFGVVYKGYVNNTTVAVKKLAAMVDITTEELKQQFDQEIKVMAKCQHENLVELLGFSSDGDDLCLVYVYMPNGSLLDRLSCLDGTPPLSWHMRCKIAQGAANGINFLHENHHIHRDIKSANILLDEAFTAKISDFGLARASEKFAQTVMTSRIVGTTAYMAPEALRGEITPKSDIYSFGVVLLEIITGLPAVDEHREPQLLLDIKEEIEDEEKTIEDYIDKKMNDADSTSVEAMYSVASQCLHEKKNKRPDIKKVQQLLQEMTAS
# assay-info: Hibit fluorescence detection of proteolysis (IRAK4-HiBiT in HEK293T cells)
# Format: cell-based
# Parameters: host or cells: HEK293T (ATCC)
# conditions-used: IRAK4-HiBiT, HEK293T cells, 24 h
Structures can show the parent of a compound that is named as a salt.
Hi there, I'd appreciate the recorded DC50 for every entry that follows.

Known results for compounds:
Cn1c(=O)n(C2CCC(=O)NC2=O)c2cccc(N3CCC(N4CCN(C[C@H]5CC[C@H](n6cc(-n7cc(-c8cnn9ccc(NCC%10CC%10)nc89)nn7)c(C(F)F)n6)CC5)CC4)CC3)c21 (stereo partly shown) [Example 114] : < 0.5 nM
NC(=O)c1cnn2c(-c3cn(-c4cn(C5CCN(CCN6CCN(c7ccc8c(c7)C(=O)N(C7CCC(=O)NC7=O)C8=O)CC6)CC5)nc4C(F)F)nn3)ccc2c1 (stereo not shown) [Example 93] : 1 to 5 nM
Cn1c(=O)n(C2CCC(=O)NC2=O)c2cccc(N3CCN(C[C@H]4CC[C@H](n5cc(-n6cc(-c7cnn8ccc(N9CCC[C@H](O)C9)nc78)nn6)c(C(F)F)n5)CC4)CC3)c21 (stereo partly shown) [Example 141] : < 0.5 nM
Cn1c(=O)n(C2CCC(=O)NC2=O)c2cccc(C3CN(C4CN(C[C@H]5CC[C@H](n6cc(-n7cc(-c8ccc9cc(C(N)=O)cnn89)nn7)c(C(F)F)n6)CC5)C4)C3)c21 (stereo partly shown) [Example 83] : < 0.5 nM
Cn1c(=O)n(C2CCC(=O)NC2=O)c2cccc(C#CC3CCN(C[C@H]4CC[C@H](n5cc(-n6cc(-c7ccc8cc(C(N)=O)cnn78)nn6)c(C(F)F)n5)CC4)CC3)c21 (stereo partly shown) [Example 79] : 0.5 to 1 nM
Cn1c(=O)n(C2CCC(=O)NC2=O)c2cccc(N3CC4CN(C[C@H]5CC[C@H](n6cc(-n7cc(-c8cnn9ccc(N%10CCOCC%10)nc89)nn7)c(C(F)F)n6)CC5)CC4C3)c21 (stereo partly shown) [Example 33] : < 0.5 nM
Cn1c(=O)n(C2CCC(=O)NC2=O)c2cccc(N3CCC(N4CCN(C[C@H]5CC[C@H](n6cc(-n7cc(-c8cnn9ccc(N%10CCNCC%10)nc89)nn7)c(C(F)F)n6)CC5)CC4)CC3)c21 (stereo partly shown) [Example 127, dihydrochloride] : < 0.5 nM
CN(CC1CCN(CCC#Cc2cccc3c2n(C)c(=O)n3C2CCC(=O)NC2=O)CC1)C[C@H]1CC[C@H](n2cc(-n3cc(-c4cnn5ccc(N6CCOCC6)nc45)nn3)c(C(F)F)n2)CC1 (stereo partly shown) [Example 25] : < 0.5 nM

Batch request: DC50 per item, same order as input.
1. Cn1c(=O)n(C2CCC(=O)NC2=O)c2cccc(N[C@H]3CC[C@H](N(C)C[C@H]4CC[C@H](n5cc(-n6cc(-c7cnn8ccc(N9CCOCC9)nc78)nn6)c(C(F)F)n5)CC4)CC3)c21 (stereo partly shown) [Example 55]
2. Cn1c(=O)n(C2CCC(=O)NC2=O)c2cccc(CNC3CC4(CCN(C[C@H]5CC[C@H](n6cc(-n7cc(-c8cnn9ccc(N%10CCOCC%10)nc89)nn7)c(C(F)F)n6)CC5)CC4)C3)c21 (stereo partly shown) [Example 10]

1: < 0.5 nM; 2: < 0.5 nM
